Potency values for the molecules below.
- PROTOCOL NOTES: BET inhibitor-based combinations targeting novel dependencies in MECOM-rearranged (r) AML: MV-4-11 cell line (AID 2202233); note: nearly all actives have a fitted effect of over 45% in size; note: potency is the fitted concentration of half-maximal effect
- CONDITION NOTES: MV-4-11 AML viability, CellTiter-Glo luminescence, 48 h; series mostly up to 46 µM
Results filed as inconclusive are left out. Calls of active or inactive are those of the source. Calls come from the whole dose curve; as a rule, active = well fitted inhibition curve with a large enough effect; inconclusive = small, poorly fitted or top-dose-only effect; inactive = no such curve, though single readings can be large or run the other way.

Consider the reported Potency for these molecules:
> print(dat)
                                   molecule  measured.quantity  experimental.result
1  CN(C)Cc1cccc(N=C(c2ccccc2)c2c(O)[nH]c3cc(C(N)=O)ccc23)c1            Potency    0.662 µM (active)
2  Clc1cc(Cl)cc(CNc2ncncc2-c2ccc3c(c2)OCO3)c1            Potency     23.5 µM (active)
3  O=C(Nc1ccc(OC(F)(F)Cl)cc1)c1cnc(N2CC[C@@H](O)C2)c(-c2ccn[nH]2)c1            Potency     20.9 µM (active)
4  Cc1c(NC(=O)OC[C@@H]2COCCN2)cn2ncnc(Nc3ccc4c(cnn4Cc4cccc(F)c4)c3)c12            Potency     18.6 µM (active)
5  COc1ncc(-c2ccc3nccc(-c4ccnnc4)c3c2)cc1NS(=O)(=O)c1ccc(F)cc1F            Potency    0.105 µM (active)

Below: the item to evaluate.
Challenge: Could you tell me which Potency is on file for COc1cc(Oc2ccnc3cc(OC)c(OC)cc23)ccc1NC(=O)NC(C)c1nccs1 (stereo not given) ?
Response given: 11.8 µM (active)

----------
- PROTOCOL NOTES: BET inhibitor-based combinations targeting novel dependencies in MECOM-rearranged (r) AML: MV-4-11 cell line (AID 2202233); note: nearly all actives have a fitted effect of over 45% in size
- CONDITION NOTES: MV-4-11 AML viability, CellTiter-Glo luminescence, 48 h; series mostly up to 46 µM
Results filed as inconclusive are left out. Active and inactive are the calls of the source. Calls come from the whole dose curve; as a rule, active = well fitted inhibition curve with a large enough effect; inconclusive = small, poorly fitted or top-dose-only effect; inactive = no such curve, though single readings can be large or run the other way.
The reply should be one of these categories: active, inactive

Field: example entries. Status: answers known.
> print(dat)
                  compound.structure.string  class.assignment
1  C[C@H](NC(=O)[C@H]1NCC[C@@H]1O)c1ccc(-c2noc(CCC3CCCC3)n2)cc1          inactive
2  CCN(CC)CCNC(=O)c1c(C)[nH]c(/C=C2/C(=O)Nc3ccc(-c4csc(-c5ccccc5)n4)cc32)c1C            active

Next up:
Challenge: Assay outcome for COc1cc(C(=O)NC(N)=Nc2ccc(C)c(NC(=O)c3ccc(-c4ccccc4)cc3)c2)cc(OC)c1OC : what was it?
Response given: active

----------
- PROTOCOL NOTES: qHTS for Inhibitors of the Aldehyde Dehydrogenase Family (ALDH1A2, ALDH1A3, ALDH2, ALDH3A1) (AID 2061307); note: nearly all actives have a fitted effect of over 50% in size
- CONDITION NOTES: ALDH inhibition qHTS; series mostly up to 50.3 µM
Records with an inconclusive call do not appear. The source made the active and inactive calls. Calls come from the whole dose curve; as a rule, active = well fitted inhibition curve with a large enough effect; inconclusive = small, poorly fitted or top-dose-only effect; inactive = no such curve, though single readings can be large or run the other way.
The reply should be one of these categories: true (1) for active, false (0) for inactive

> print(dat)
                                   compound  class.assignment
1  O=C(NC1CCCN(Cc2ccccc2)C1)c1ccc(-c2cccc([N+](=O)[O-])c2)o1 (stereo unspecified)          true (1)
2  COc1ccc(-n2c(C)c(C(=O)c3ccccc3)c3cc(O)ccc32)cc1         false (0)
3  CC(Sc1nc2c(cnn2C2COC2)c(=O)n1-c1ccccc1)c1ccccc1 (stereo unspecified)         false (0)
4       N#Cc1ccsc1NC(=O)c1ccn(-c2ccccc2F)n1          true (1)
5  N[C@@H](CCC(=O)O)C(=O)Nc1cccc(-c2nn3c(=O)cc(N4CCNCC4)nc3s2)c1         false (0)

Next up:
Challenge: Assay outcome for CC(C)(C)c1ccccc1-n1c(CN2CCN(C(=O)c3ccco3)CC2)nc2ccccc2c1=O : what was it?
Response given: false (0)
